Consider the following compounds and their measured pIC50 readings.
test system: SARS-CoV-2 BA.4/5 Spike pseudovirus; assay: organism not typed; format: cell-based; details: read-out: IC50 BA.4/5
Field pIC50 (float): negative decimal logarithm of the concentration in molar.

*Q* // returns reported pIC50 for input "CCN(C)C[C@@H](O)COc1cc(Br)cc(OC[C@H](O)CN(C)CC)c1"
*A* 5.55

*Q* # lookup: pIC50 of "CN1CCN(C[C@@H](O)COc2cc(Br)cc(OC[C@H](O)CN3CCN(C)CC3)c2)CC1"
*A* 5.31

*Q* # get_value(readout='pIC50', item= "CN(C)C[C@@H](O)COc1cc(Br)cc(OC[C@H](O)CN(C)C)c1" )
*A* 5.84

*Q* # pIC50 lookup, item O[C@@H](COc1cccc(OC[C@H](O)CN2CCCCC2)c1)CN1CCCCC1 [(R,R)-VE607, reference compound]
*A* 5.24

----------
test system: SARS-CoV-2 JN.1 Spike pseudovirus; assay: organism not typed; type: cell-based; conditions: read-out: IC50 JN.1
PROPERTY: IC50 (µM)
Provide the reading as a plain figure in µM.

Would you please look over these solved cases?
CCN(C)C[C@@H](O)COc1cc(Br)cc(OC[C@H](O)CN(C)CC)c1 [Compound 33]	2.02
O[C@@H](COc1cccc(OC[C@H](O)CN2CCCCC2)c1)CN1CCCCC1 [(R,R)-VE607, reference compound]	6.4
CN1CCN(C[C@@H](O)COc2cc(Br)cc(OC[C@H](O)CN3CCN(C)CC3)c2)CC1 [Compound 30]	3.9

Now examine the next entry.
*Q* Would you mind telling me what IC50 value was observed for CN(C)C[C@@H](O)COc1cc(Br)cc(OC[C@H](O)CN(C)C)c1 [Compound 27] ?
*A* 1.34

----------
test system: pseudoviral particles bearing the Spike glycoprotein from SARS-CoV-2; assay: microbe, parasite or virus in culture; assay type: cell-based; conditions: Severe acute respiratory syndrome coronavirus 2, 293T/ACE2, read-out: IC50 SARS-CoV-2, Table 1; pseudovirus, 293T-ACE2 cells, compounds up to 100 µM
PROPERTY: IC50

*Q* Entry "CNC[C@@H](O)COc1cccc(C(C)(C)C)c1" : reported IC50 = ?
*A* > 100000 nM

*Q* Need IC50 of "O[C@@H](COc1cc(Br)cc(OC[C@H](O)CN2CCCCC2)c1)CN1CCCCC1" , thanks.
*A* 440 nM

*Q* Fill in the blank: the reported IC50 of "COc1ccc(CNC[C@@H](O)COc2cc(Br)cc(OC[C@H](O)CNCc3ccc(OC)cc3)c2)cc1" is ____.
*A* 1030 nM

*Q* Field request: IC50 | item: "CN1CCN(C[C@@H](O)COc2cccc(Br)c2)CC1"
*A* > 100000 nM

*Q* Record request: IC50 value, item "CCN(CC)C[C@@H](O)COc1ccccc1"
*A* > 100000 nM

----------
tested on: SARS-CoV-2 B.1.1.7 Spike pseudovirus; test: organism not typed; type: cell-based; settings: read-out: IC50 B.1.1.7
# key: entry, value: IC50
Please state the figure in nM; there is no need to write the unit.

CN1CCN(C[C@@H](O)COc2cc(Br)cc(OC[C@H](O)CN3CCN(C)CC3)c2)CC1	1260

*Q* Bench note: what IC50 did O[C@@H](COc1cccc(OC[C@H](O)CN2CCCCC2)c1)CN1CCCCC1 [(R,R)-VE607, reference compound] show?
*A* 1170

*Q* For the compound "CCN(C)C[C@@H](O)COc1cc(Br)cc(OC[C@H](O)CN(C)CC)c1" , what IC50 is on record?
*A* 1440

*Q* Would you kindly share the measured IC50 for "CN(C)C[C@@H](O)COc1cc(Br)cc(OC[C@H](O)CN(C)C)c1" ?
*A* 1120

----------
tested on: SARS-CoV-2 XBB.1.5 Spike pseudovirus; test: organism not typed; assay type: cell-based; conditions: read-out: IC50 XBB.1.5
# IC50 values compiled below
Report field: quantity (unit follows the number).

Below, 3 molecules whose answers are already recorded.
O[C@@H](COc1cccc(OC[C@H](O)CN2CCCCC2)c1)CN1CCCCC1 [(R,R)-VE607, reference compound]	990 nM
CCN(C)C[C@@H](O)COc1cc(Br)cc(OC[C@H](O)CN(C)CC)c1 [Compound 33]	2430 nM
CN(C)C[C@@H](O)COc1cc(Br)cc(OC[C@H](O)CN(C)C)c1 [Compound 27]	1040 nM

Attention now turns to another entry.
*Q* Recorded IC50 of CN1CCN(C[C@@H](O)COc2cc(Br)cc(OC[C@H](O)CN3CCN(C)CC3)c2)CC1 [Compound 30] , please.
*A* 1050 nM

----------
tested on: pseudoviral particles bearing the Spike glycoprotein from SARS-CoV-2; assay: microbe, parasite or virus in culture; assay type: cell-based; conditions: read-out: IC50 SARS-CoV-2; Table 1; pseudovirus, 293T-ACE2 cells, compounds up to 100 µM
PROPERTY: IC50 (nM)
Provide only the numeric value, understood in nM.

CN(C)C[C@@H](O)COc1cc(Br)cc(OC[C@H](O)CN(C)C)c1	437

*Q* Dear colleague, I am looking for the recorded IC50 of the following compound: "O[C@@H](COc1cc(Br)cc(OC[C@H](O)CN2CCCCC2)c1)CN1CCCCC1"
*A* 443

----------
tested on: SARS-CoV-2 XBB.1.16 Spike pseudovirus; experiment: organism not typed; format: cell-based; settings: read-out: IC50 XBB.1.16
PROPERTY: pIC50
Please keep in mind that pIC50 is minus log10 of the molar concentration; only the number is needed.

Solved entries (count: 3):
CCN(C)C[C@@H](O)COc1cc(Br)cc(OC[C@H](O)CN(C)CC)c1	5.67
CN1CCN(C[C@@H](O)COc2cc(Br)cc(OC[C@H](O)CN3CCN(C)CC3)c2)CC1	5.85
CN(C)C[C@@H](O)COc1cc(Br)cc(OC[C@H](O)CN(C)C)c1	5.74

Now examine the next entry.
*Q* Given the entry O[C@@H](COc1cccc(OC[C@H](O)CN2CCCCC2)c1)CN1CCCCC1 [(R,R)-VE607, reference compound] , report its measured pIC50.
*A* 5.69

----------
test system: pseudoviral particles bearing the Spike glycoprotein from SARS-CoV-2; assay: microbe, parasite or virus in culture; format: cell-based; details: Severe acute respiratory syndrome coronavirus 2, 293T/ACE2, read-out: IC50 SARS-CoV-2, Table 1; pseudovirus, 293T-ACE2 cells, compounds up to 100 µM
Listing of recorded IC50 by entry.
Output spec: scalar in µM, unitless text.

O[C@H](CNC1CCOCC1)COc1cccc(OC[C@H](O)CNC2CCOCC2)c1	0.38
O[C@@H](COc1cccc(OC[C@H](O)CN2CCC(O)(c3ccc(Cl)cc3)CC2)c1)CN1CCC(O)(c2ccc(Cl)cc2)CC1	0.52
COc1ccc(CNC[C@@H](O)COc2cccc(OC[C@H](O)CNCc3ccc(OC)cc3)c2)cc1	0.57
OC(COc1cccc(OCC(O)CN2CCCCC2)c1)CN1CCCCC1 (centres unmarked)	2.66
CN(C)C[C@@H](O)COc1cccc(C(C)(C)C)c1	84.7

*Q* API: value(readout=IC50, system=pseudoviral particles bearing the Spike glycoprotein from SARS-CoV-2) for record "O[C@H](CNCc1ccncc1)COc1cc(Br)cc(OC[C@H](O)CNCc2ccncc2)c1"
*A* 1.37

----------
The entries below come with measured IC50 values attached.
test system: pseudoviral particles bearing the Spike glycoprotein from SARS-CoV-2; assay: microbe, parasite or virus in culture; assay type: cell-based; conditions: Severe acute respiratory syndrome coronavirus 2, 293T/ACE2, read-out: IC50 SARS-CoV-2, Table 1; pseudovirus, 293T-ACE2 cells, compounds up to 100 µM
State just the number; it will be interpreted in nM.

*Q* Param item = O[C@@H](COc1cccc(OC[C@H](O)CN2CCCCC2)c1)CN1CCCCC1 [(R,R)-VE607, reference compound] ; retrieve measured IC50.
*A* 980

*Q* Using the record for "CCN(C)C[C@@H](O)COc1cc(Br)cc(OC[C@H](O)CN(C)CC)c1" , report its IC50.
*A* 1710

*Q* May I ask what IC50 has been recorded for "CNC[C@@H](O)COc1cc(Br)cc(OC[C@H](O)CNC)c1" ?
*A* 1170

----------
pIC50 by entry:
test system: pseudoviral particles bearing the Spike glycoprotein from SARS-CoV-2; assay: microbe, parasite or virus in culture; type: cell-based; settings: Severe acute respiratory syndrome coronavirus 2, 293T/ACE2, read-out: IC50 SARS-CoV-2, Table 1; pseudovirus, 293T-ACE2 cells, compounds up to 100 µM
On this scale, pIC50 is minus log10 of a concentration expressed in M (mol/L).

*Q* Checklist item: pIC50 tested on pseudoviral particles bearing the Spike glycoprotein from SARS-CoV-2, entry "O[C@@H](COc1cc(Br)cc(OC[C@H](O)CN2CCOCC2)c1)CN1CCOCC1" , value?
*A* 5.58

*Q* Please state recorded pIC50 (tested on pseudoviral particles bearing the Spike glycoprotein from SARS-CoV-2) of "CCN(C)C[C@@H](O)COc1cccc(OC[C@H](O)CN(C)CC)c1"
*A* 5.93

*Q* # returns recorded pIC50 (system: pseudoviral particles bearing the Spike glycoprotein from SARS-CoV-2) for "CN1CCN(C[C@@H](O)COc2cc(Br)cc(OC[C@H](O)CN3CCN(C)CC3)c2)CC1"
*A* 5.83

*Q* Hello, I am looking for reported pIC50 with pseudoviral particles bearing the Spike glycoprotein from SARS-CoV-2 for "CN1CCN(C[C@@H](O)COc2cccc(C(C)(C)C)c2)CC1" . Could you help?
*A* 4.34
